- assayed.system: HIV-1 PR (Human immunodeficiency virus type 1 group M subtype B)
- experimental.details: cell-based
- particulars: EC50 in Fission Yeast /Drug Formulation, compounds in drug pill forms; PR-on RE294 cells; growth (OD650) at 72 h post-gene induction relative to PR-off cells
pEC50: −log10 of the molar value.

molecule	inequality.operator	pEC50
CC(C)CN(C[C@@H](OP(=O)(O)O)[C@H](Cc1ccccc1)NC(=O)O[C@H]1CCOC1)S(=O)(=O)c1ccc(N)cc1 [FPV, Fosamprenavir]	<	3.82
COC(=O)N[C@H](C(=O)N[C@@H](Cc1ccccc1)[C@@H](O)CN(Cc1ccc(-c2ccccn2)cc1)NC(=O)[C@@H](NC(=O)OC)C(C)(C)C)C(C)(C)C [ATV, Atazanavir]	=	4.79

From: paper PMC8308830
